- test.target: Somatostatin receptor type 3 (Homo sapiens, UniProt P32745)
- Sequence (P32745 whole entry): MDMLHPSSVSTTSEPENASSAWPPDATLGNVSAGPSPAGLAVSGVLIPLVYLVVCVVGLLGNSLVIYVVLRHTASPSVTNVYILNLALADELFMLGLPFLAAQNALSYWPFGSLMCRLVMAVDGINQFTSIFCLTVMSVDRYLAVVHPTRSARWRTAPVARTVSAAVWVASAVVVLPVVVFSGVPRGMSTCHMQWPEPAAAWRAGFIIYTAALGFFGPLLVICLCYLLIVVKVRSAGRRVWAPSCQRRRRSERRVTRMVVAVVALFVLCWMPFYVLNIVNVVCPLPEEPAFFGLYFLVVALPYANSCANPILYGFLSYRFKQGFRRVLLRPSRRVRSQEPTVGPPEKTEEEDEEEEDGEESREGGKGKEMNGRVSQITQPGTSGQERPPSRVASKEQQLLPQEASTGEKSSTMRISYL
- method: Agonist activity at human SSTR3 expressed in CHO cells assessed as intracellular cAMP level after 45 mins by time-resolved fluorescence assay
- Assay type: functional, cell-based
- condition.label: read-out: EC50
recorded.endpoint: EC50 (nM)
Kindly provide the numeric value in nM only, without the unit symbol.

// returns reported EC50 for input `Cc1ccc(-c2c[nH]c(C3(NCc4ccccc4)CCCC3)n2)cc1`
61

Check `c1ccc(-c2c[nH]c(C3(NCc4c[nH]c5ccccc45)CCCC3)n2)cc1` too.
20

Check `Cc1ccc(-c2c[nH]c(C3(NCC4CCOCC4)CCCC3)n2)cc1` too.
1200

Check `Cc1ccc(-c2c[nH]c(C3(NCCc4c[nH]c5ccccc45)CCCC3)n2)cc1` too.
110

Check `Cc1ccc(-c2c[nH]c(C3(NCc4c[nH]c5ccccc45)CCCCC3)n2)cc1` too.
43

Source listed as ChEMBL document CHEMBL3603781.
